System: Radical scavenging activity
Procedure text: Antioxidant activity assessed as DPPH free radical scavenging activity after 20 mins
Format: functional
Observation type: IC50 (µM)
Report the figure in µM without appending any unit label.

For reference, reported IC50 for O=c1cc(O)c2ccc3c(c2o1)[C@@H](O)[C@@H](O)C1(CCCCCC1)O3 stands at 158

---
Entry O=c1cc(O)c2ccc3c(c2o1)[C@@H](O)[C@@H](O)C1(CCCCC1)O3 — recorded IC50 = 161

O=c1cc(O)c2ccccc2o1 [4-HYDROXYCOUMARINS] yielded IC50 of 124

For record O=c1cc(O)c2ccc3c(c2o1)[C@@H](O)[C@@H](O)C1(O3)C2CC3CC(C2)CC1C3 (stereo partly specified) the listed IC50 is 166

Sure, the documented IC50 for O=c1cc(O)c2ccc3c(c2o1)[C@@H](O)[C@@H](O)C1(CCCC1)O3 is 97.8

Value of IC50 reported for the compound O=c1cc(O)c2ccc3c(c2o1)C=CC1(CCCCCC1)O3 is 202

For reference, reported IC50 for O=c1cc(O)c2ccc3c(c2o1)C=CC1(O3)C2CC3CC(C2)CC1C3 (stereo unspecified) stands at 130

# IC50 of O=c1cc(O)c2ccc3c(c2o1)C=CC1(CCCC1)O3 = 182

Quick note, IC50 for Cc1cc(C(C)(C)C)c(O)c(C(C)(C)C)c1 [BUTYLATED HYDROXYTOLUENE] landed at 83.8

Recorded IC50 (compound O=c1cc(O)c2ccc3c(c2o1)C=CC1(CCCCC1)O3 ): 201
